Tested on: Staphylococcus aureus
Test Description: Antibacterial activity against methicillin-resistant Staphylococcus aureus isolate M2 after 16 to 20 hrs by broth microdilution method
Type: functional

Compound: CCCCCCCCN(CCCCCCCC)C(=O)[C@@H](N)C(C)O.Cl (some centres not stated)
Unit Descriptor: µg/mL
MIC: 4

Compound: CCCCCCCCCCN(CCCCCCCCCC)C(=O)[C@@H](N)CCCCN.Cl.Cl
Unit Descriptor: µg/mL
MIC: 1

Compound: CCCCCCCCN(CCCCCCCC)C(=O)[C@@H](N)CO.Cl
Unit Descriptor: µg/mL
MIC: 4

Compound: CCCCCCCCCCN(CCCCCCCCCC)C(=O)[C@@H](N)CCCN=C(N)N.Cl.Cl.Cl
Unit Descriptor: µg/mL
MIC: 1

Compound: CCCCCCCCN(CCCCCCCC)C(=O)[C@@H](N)Cc1ccccc1.Cl
Unit Descriptor: µg/mL
MIC: 16

Compound: CCCCCCCCN(CCCCCCCC)C(=O)[C@@H](N)CCCCN.Cl.Cl
Unit Descriptor: µg/mL
MIC: 1

Compound: CCCCCCCCCCN(CCCCCCCCCC)C(=O)[C@@H](N)CO.Cl
Unit Descriptor: µg/mL
MIC: 4

Compound: CCCCCCCCCCCN(CCCCCCCCCCC)C(=O)[C@@H](N)CCCCN.Cl.Cl
Unit Descriptor: µg/mL
MIC: 1

Compound: CCCCCCCCN(CCCCCCCC)C(=O)[C@H](C)N.Cl
Unit Descriptor: µg/mL
MIC: 4

Compound: CCCCCCCCCN(CCCCCCCCC)C(=O)[C@@H](N)CCCN=C(N)N.Cl.Cl.Cl
Unit Descriptor: µg/mL
MIC: 1

Compound: CCCCCCCN(CCCCCCC)C(=O)[C@@H](N)CCCCN.Cl.Cl
Unit Descriptor: µg/mL
MIC: 16

Compound: CCCCCCCCN(CCCCCCCC)C(=O)[C@@H](N)CCCN=C(N)N.Cl.Cl.Cl
Unit Descriptor: µg/mL
MIC: 1

Compound: CCCCCCCCCN(CCCCCCCCC)C(=O)[C@@H](N)CCCCN.Cl.Cl
Unit Descriptor: µg/mL
MIC: 1

Compound: CCCCCCCCN(CCCCCCCC)C(=O)[C@@H](N)CC(C)C.Cl
Unit Descriptor: µg/mL
MIC: 2

Compound: CCCCCCCCN(CCCCCCCC)C(=O)[C@H](N)CO.Cl
Unit Descriptor: µg/mL
MIC: 4

Compound: CCCCCCCCCCN(CCCCCCCCCC)C(=O)[C@H](N)CO.Cl
Unit Descriptor: µg/mL
MIC: 32

Compound: CCCCCCCCN(CCCCCCCC)C(=O)[C@@H](N)[C@@H](C)CC.Cl
Unit Descriptor: µg/mL
MIC: 4

---

Test system: Staphylococcus aureus
Test Description: Antibacterial activity against methicillin-resistant Staphylococcus aureus isolate M10 after 16 to 20 hrs by broth microdilution method
Format: functional
Measurement Type: log10 of MIC (log10 of the value in µg/mL)

Compound: CCCCCCCCCN(CCCCCCCCC)C(=O)[C@@H](N)CCCN=C(N)N.Cl.Cl.Cl
System: Staphylococcus aureus
log10 of MIC: 0.30
--
Compound: CCCCCCCCN(CCCCCCCC)C(=O)[C@H](C)N.Cl
System: Staphylococcus aureus
log10 of MIC: 0.60
--
Compound: CCCCCCCCN(CCCCCCCC)C(=O)[C@@H](N)Cc1ccccc1.Cl
System: Staphylococcus aureus
log10 of MIC: 1.51
--
Compound: CCCCCCCCN(CCCCCCCC)C(=O)[C@H](N)CO.Cl
System: Staphylococcus aureus
log10 of MIC: 0.60
--
Compound: CCCCCCCCCCN(CCCCCCCCCC)C(=O)[C@@H](N)CO.Cl
System: Staphylococcus aureus
log10 of MIC: 1.20
--
Compound: CCCCCCCCCCCN(CCCCCCCCCCC)C(=O)[C@@H](N)CCCCN.Cl.Cl
System: Staphylococcus aureus
log10 of MIC: 0.60
--
Compound: CCCCCCCCN(CCCCCCCC)C(=O)[C@@H](N)CCCCN.Cl.Cl
System: Staphylococcus aureus
log10 of MIC: -0.30
--
Compound: CCCCCCCCN(CCCCCCCC)C(=O)[C@@H](N)C(C)O.Cl (some centres not stated)
System: Staphylococcus aureus
log10 of MIC: 0.90
--
Compound: CCCCCCCCN(CCCCCCCC)C(=O)[C@@H](N)CCCN=C(N)N.Cl.Cl.Cl
System: Staphylococcus aureus
log10 of MIC: -0.30
--
Compound: CCCCCCCCCCN(CCCCCCCCCC)C(=O)[C@@H](N)CCCCN.Cl.Cl
System: Staphylococcus aureus
log10 of MIC: 0.00
--
Compound: CCCCCCCCN(CCCCCCCC)C(=O)[C@@H](N)CO.Cl
System: Staphylococcus aureus
log10 of MIC: 0.30
--
Compound: CCCCCCCCCCN(CCCCCCCCCC)C(=O)[C@H](N)CO.Cl
System: Staphylococcus aureus
log10 of MIC: 1.51
--
Compound: CCCCCCCCCCN(CCCCCCCCCC)C(=O)[C@@H](N)CCCN=C(N)N.Cl.Cl.Cl
System: Staphylococcus aureus
log10 of MIC: 0.30
--
Compound: CCCCCCCN(CCCCCCC)C(=O)[C@@H](N)CCCCN.Cl.Cl
System: Staphylococcus aureus
log10 of MIC: 0.60
--
Compound: CCCCCCCCCN(CCCCCCCCC)C(=O)[C@@H](N)CCCCN.Cl.Cl
System: Staphylococcus aureus
log10 of MIC: -0.30
--
Compound: CCCCCCCCN(CCCCCCCC)C(=O)[C@@H](N)CC(C)C.Cl
System: Staphylococcus aureus
log10 of MIC: 0.60
--
Compound: CCCCCCCCN(CCCCCCCC)C(=O)[C@@H](N)[C@@H](C)CC.Cl
System: Staphylococcus aureus
log10 of MIC: 0.60
